// values below are reported reduction of Ang1 binding to Tie2
Target: T1, recombinant human Ang1 carrier-free (R&D Systems, Cat#923-AN-025/CF) (human, UniProt Q15389 20-498, limits assumed)
T1 construct: Bought recombinant protein; also called angiopoietin 1
T1 sequence: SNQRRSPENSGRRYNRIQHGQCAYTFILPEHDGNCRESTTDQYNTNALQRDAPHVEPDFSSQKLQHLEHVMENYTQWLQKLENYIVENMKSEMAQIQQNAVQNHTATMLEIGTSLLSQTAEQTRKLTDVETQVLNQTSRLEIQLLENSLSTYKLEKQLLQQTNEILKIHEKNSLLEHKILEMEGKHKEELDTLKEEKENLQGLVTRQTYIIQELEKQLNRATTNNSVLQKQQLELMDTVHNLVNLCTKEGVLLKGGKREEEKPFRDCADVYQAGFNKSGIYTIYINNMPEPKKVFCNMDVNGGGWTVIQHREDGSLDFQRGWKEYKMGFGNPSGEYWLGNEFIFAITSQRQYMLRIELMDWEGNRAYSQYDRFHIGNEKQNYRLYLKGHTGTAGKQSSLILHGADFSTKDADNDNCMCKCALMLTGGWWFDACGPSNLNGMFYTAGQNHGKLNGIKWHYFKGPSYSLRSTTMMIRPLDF
Assay: SPR competition (BIAcore), Tie-2/Fc immobilised; Ang1 100-500 nM with peptide 10-50 µM at 1:100
Protocol: Peptide-protein interaction was analyzed using surface plasmon resonance. […] Solutions containing 10-50 μM of CGEN-G6 [SEQ ID NO: 6], CGEN-F9 [SEQ ID NO: 7], CGEN-C6 [SEQ ID NO: 9], CGEN-A11 [SEQ ID NO: 10], and CGEN-G2 [SEQ ID NO: 11] were injected into the sample chamber of the BIACORE device at a rate of 20 μl/min and the interaction was monitored using surface plasmon resonance. […]

# count of solved cases: 2
BINDER | reduction of Ang1 binding to Tie2
Ac-DLMETVNNLLTMMSTSNSAKD-NH2 (MW 2356.8) [CGEN-G6 (SEQ ID NO: 6)] | ≤ 34%
Ac-TDMEAQLLNQTSRMDAQM-NH2 (MW 2124.5) [CGEN-C6 (SEQ ID NO: 9)] | ≤ 34%

Please report the recorded reduction of Ang1 binding to Tie2 for Ac-ETFLSTNKLENQ-NH2 (MW 1464.7) [CGEN-A11 (SEQ ID NO: 10)] .
≤ 34%

Please report the recorded reduction of Ang1 binding to Tie2 for Ac-QEELASILSKKAKLLNTLSRQSAALTNIERGLRGVR-NH2 (MW 4006.8) [CGEN-F9 (SEQ ID NO: 7)] .
≤ 34%

Hello, the source for this data is patent US20140004175A1, in case you need it.
